test system: Neuregulin-1 EGF-like domain; experiment: binders of neuregulin-1 EGF-like domain, primary screen, biochemical, small-molecule microarray, 635 nm fluorescence (AID 1081); conditions: small-molecule microarray binding, higher = more signal;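 further: binding of the protein to compounds printed on small-molecule microarray slides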
Assignment: determine reported composite z-score for the given compounds.
Respond using a number only.

Which composite z-score is reported for this compound? COc1ccc(C#Cc2ccc3c(c2)[C@]2(C(=O)N3)[C@H](C(=O)N3CCCCCCC3)[C@H]3C(=O)O[C@H](c4ccccc4)[C@H](c4ccccc4)N3[C@@H]2c2ccc(O)cc2)cc1 1.24

Reported composite z-score, compound CC1(C)C(=O)C(c2ccccc2)=C2CN3C(=O)N(CCc4ccccc4)C(=O)C3(Cc3ccc(C(F)(F)F)cc3)C=C21 (centres undefined) : ____ 0.831

Please give the measured composite z-score for this compound: CCCCNC(=O)c1ccc(C#C[Si](C(C)C)(C(C)C)C(C)C)c(OC(C)=O)c1 1.09

Record request: composite z-score value, item C=C(CCCC)C(=O)CC[C@@H](OC(=O)c1cccnc1)c1ccc(OCCO)cc1 1.19

====

test system: Noggin (protein binding on small-molecule microarray); assay: Noggin binders on small-molecule microarray, primary screen, biochemical, 635/667 nm fluorescence (AID 1095); settings: 635 nm fluorescence, higher = more signal;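 further: score merges 667 nm feature fluorescence with signal to noise over triplicate slides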
quantity_measured: composite z-score
Output: the number by itself.

Could you tell me which composite z-score is on file for CCOC(=O)C[C@H]1[C@H](OC(=O)c2ccccc2-c2ccccc2)[C@@H](NC(=O)c2ccc3ccccc3n2)c2cc(OCCCO)ccc2N1C(=O)c1ccccc1 ? 0.54

So what does the record say about composite z-score for CCCNC(=O)[C@@]1(C)c2ccccc2C(=O)N(Cc2ccccc2)[C@H]1c1ccc(CO)cc1 ? -1.1

// returns reported composite z-score for input Cc1c(NC(=O)/C(C#N)=C/c2ccccc2Cl)c(=O)n(-c2ccccc2)n1C 0.0603

Which composite z-score value belongs to COCCOC(=O)N1C(=O)[C@@]2(c3cc(C#CCC(C(=O)OC)C(=O)OC)ccc31)[C@H](C(=O)NC[C@H](O)c1ccccc1)[C@H]1C(=O)O[C@H](c3ccccc3)[C@H](c3ccccc3)N1[C@@H]2c1ccc(OCCO)cc1 ? 1.69

What composite z-score value was documented for this compound, C[C@]1(C(=O)O)c2ccccc2C(=O)N(Cc2ccc(OC(F)(F)F)cc2)[C@H]1c1ccc(CO)cc1 ? -0.94

Given COCC(=C=CC[C@H](O)c1cccc(OCCO)c1)C[C@H](O)COCc1ccccc1 , state its recorded composite z-score. 0.546

What measured composite z-score goes with COC(=O)[C@@]1(Cc2ccccc2)[C@H]2c3cc(C(=O)N4CCCC4)n(CCSCCO)c3C[C@H]2CN1C(=O)c1ccccc1 ? 0.511

composite z-score for O=C1C[C@@](C(=O)NCc2ccccc2)(c2ccc([N+](=O)[O-])cc2)[C@@H](c2ccc(CO)cc2I)N1CC12CC3CC(CC(C3)C1)C2 ? 1.8

// composite z-score lookup, key: C=CCC(OC(C)=O)[C@@H]1[C@@H](N(Cc2cccc3ccccc23)C(=O)c2ccc(-c3ccccc3)cc2)c2cc(OCCCO)ccc2N1C(=O)c1ccc(-c2ccccc2)cc1 (some centres undefined) -0.63

I am curious: what composite z-score value has been reported for [N-]=[N+]=NCc1ccccc1C[C@]1(C(=O)N2CCOCC2)COC(c2ccc(OCCCO)cc2)=N1 ? -0.296

I would be grateful if you could share the reported composite z-score for CC(C)C(=C=CC[C@@H](O)c1cccc(OCCO)c1)C[C@@H](O)COCc1ccccc1 . 0.573

Returns the measured composite z-score for the input compound. Input: COCCOC(=O)N1C(=O)[C@@]2(c3cc(C#CC4=CCCCC4)ccc31)[C@H](C(=O)N1CCCCCCC1)[C@H]1C(=O)O[C@H](c3ccccc3)[C@H](c3ccccc3)N1[C@@H]2c1ccc(OCCO)cc1 1.52

Look up composite z-score: C=C[C@H](C)[C@H](OC(=O)Nc1ccc(OC)cc1)c1ccc(OCCO)cc1 -1.14

Looking for the measured composite z-score of C[C@]1(C(=O)NCCN2CCOCC2)c2ccccc2C(=O)N(Cc2cc(F)cc(C(F)(F)F)c2)[C@H]1c1ccc(CO)cc1 , can you help? 0.463

====

Would you mind telling me the reported z-score of each entry?
assay: basal RPMI8226 mitochondrial membrane potential changes, profiling panel, cell-based, JC-1 fluorescence, 24 h, 100 nL compound (AID 1169); conditions: RPMI8226 myeloma, JC-1 mitochondrial potential fluorescence, higher = more signal; further: test concentration not given here
Note: the reply should be a number with no unit written.

Field request: z-score | item: CN(C)CCCCNC(=O)[C@H]1C[C@H]2C(=O)N[C@@H](CCCC[N+](C)(C)C)C(=O)N2[C@H]1c1ccc(O)cc1 -0.101

# get_value(readout='z-score', item= CO[C@H]1O[C@H](CO)[C@@H](OC(=O)c2ccc(Br)cc2)[C@@H]2OC(=O)[C@H](Cc3ccccc3)C/C=C/C[C@@H](Cc3ccccc3)C(=O)O[C@@H]12 ) 0.796

I would be grateful if you could share the reported z-score for CCOC(=O)C[C@H]1[C@H](OC(=O)c2ccccc2-c2ccccc2)[C@@H](NC(=O)c2ccccc2)c2cc(OCCCO)ccc2N1C(=O)c1ccccc1 . -0.485

Form field: reported z-score of COC(=O)[C@@]1(Cc2ccccc2CN=[N+]=[N-])N=C(c2ccc(OCCCO)cc2)O[C@H]1c1ccccc1CN=[N+]=[N-] -1.07

// z-score lookup, key: COCC(=C=CC[C@@H](O)c1ccc(OCCO)cc1)CCO -0.756

# get_value(readout='z-score', item= CCCNC(=O)[C@@]1(Sc2ccc(C)cc2)CC(=O)N(C(C)C)[C@@H]1c1ccc(CO)cc1I ) -0.919

Entry under review: CCOC(=O)C1=C[C@@H](C(C)(C)C)N(S(=O)(=O)c2ccc(C)cc2)[C@H]1c1cccc(Cl)c1 . Reported z-score? -1.14

z-score lookup needed for COC(=O)[C@@]1(Cc2ccc(F)cc2)[C@H]2c3cc(C(=O)N4CCCC4)n(C)c3C[C@H]2CN1C(=O)c1ccccc1 , thanks. -0.392

====

test system: Fibrinogen (Alexa647-labelled); experiment: fibrinogen binders on compound microarrays, profiling panel, artefact control for SMM control-protein annotation, biochemical, small-molecule microarray, 635/667 nm fluorescence (AID 1131); conditions: fibrinogen-A647 binding fluorescence, higher = more signal;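 further: z-score merges 667 nm fluorescence with per-spot signal-to-noise over triplicate slides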
Just so you know, the groups by composite z-score go like this: class A: < 0.2; class B: ≥ 0.2 and < 0.8; class C: ≥ 0.8

Sort into band: COCCOC(=O)N1C(=O)[C@@]2(c3cc(C#CCC(C(=O)OC)C(=O)OC)ccc31)[C@H](c1ccc(OCCO)cc1)N1[C@H](c3ccccc3)[C@H](c3ccccc3)OC(=O)[C@H]1[C@@H]2C(=O)Nc1nc2ccccc2s1 class C

GET /class?item= CN(C)C(=O)[C@@]1(CCC(=O)OC(C)(C)C)N=C(c2ccc(OCCCO)cc2)O[C@H]1c1ccccc1CN=[N+]=[N-] class C

Dear colleague, I would appreciate it if you could identify the bin for [N-]=[N+]=Nc1ccccc1C[C@@]1(C(=O)O)N=C(c2ccc(OCCCO)cc2)O[C@@H]1c1ccccc1N=[N+]=[N-] and reply at your convenience. class C

Hey, which category is COC(=O)[C@@]1(Cc2ccc(F)cc2)[C@H]2c3cc(C(=O)N4CCCC4)n(C)c3C[C@H]2CN1C(=O)c1ccccc1 in, do you know? class B

Into which category would you place COc1ccc(CCNC(=O)[C@@]2(Cc3ccccc3I)c3ccccc3C(=O)N(Cc3ccccc3Cl)[C@H]2c2ccc(CO)cc2)cc1 ? class A

State the band of COc1cc(CO)cc(I)c1O[C@H]1C=C(C(=O)NCCO)C[C@@H](NCC2CCCCC2)[C@@H]1O class A

Field: class (composite z-score) — entry: CCCCNC(=O)c1ccc(C#C[Si](C(C)C)(C(C)C)C(C)C)c(OC(C)=O)c1 class B

Bin this entry: CC(=O)NCCCC[C@@H]1NC(=O)[C@H]2C[C@@H](C(=O)NCCCCCNC(=O)CS)[C@@H](c3cccc(OCCO)c3)N2C1=O class A

Which class holds O=C1O[C@H](c2ccccc2)[C@H](c2ccccc2)N2[C@H]1[C@@H](C(=O)N1CCCCCCC1)[C@]1(C(=O)Nc3ccc(C#CC4(O)CCCCCC4)cc31)[C@H]2c1ccc(O)cc1 ? class B

Field: class (composite z-score) — entry: O=C1N[C@@H](Cc2ccccc2)C(=O)N2[C@@H]1C[C@@H](C(=O)O)[C@H]2c1ccc(O)cc1 class B

Sort C=C(COC)/C(=C/C[C@H](OC(C)=O)c1cccc(OCCO)c1)c1cnc2ccccc2c1 into one of the categories. class B

Form field 'band' for COCC1C2CC[C@H]3C(OCc4ccc(OC)cc4)OC[C@]4(C)[C@H]3C2=C(CN4C(=O)OC(C)(C)C)[C@H](C)C1COC (stereo not given in full) class C

Record C=CCC(OC(C)=O)[C@@H]1[C@@H](N(Cc2cccc3ccccc23)C(=O)c2ccc(-c3ccccc3)cc2)c2cc(OCCCO)ccc2N1C(=O)c1ccc(-c2ccccc2)cc1 (stereo not given in full) — which class? class A

# credit: PubChem BioAssay
